Tested on: Plasmodium berghei
procedure.details: Screen against P. berghei liver stage (PbLuc), transformed with Luciferase, at 2uM
Assay type: functional, HepG2
settings: tested at 2 uM
Among all 68,000 compounds or so, about 2,700 (4%) showed an effect of 50% or more. This is one part of a sample in which strong results are shown more often than they occur.
# INHIBITION values compiled below
Reply with just the number (in %).

Recorded INHIBITION, per entry:
{"compound": "O=C(NCc1ccccn1)NCC(c1ccco1)N1CCCCC1 (stereo not given)", "meas.value": -18.65}
{"compound": "OCC(CO)Nc1nc(C(F)F)nc2ccccc12", "meas.value": -11.32}

get_value(item= COc1ccc(NC(=O)C2CCCO2)cc1OCc1cccnc1 (stereo not given) , readout=INHIBITION) returns 61

get_value(item= CCc1nc(CN(C)C2CCN(CCc3ccncc3)C2)no1 (stereo not given) , readout=INHIBITION) returns -11.16

get_value(item= CCN1CCN(CC(O)c2cc(Cl)ccc2Cl)CC1 (stereo not given) , readout=INHIBITION) returns -31.79

get_value(item= Cc1nc(CN(C)C2CCN(CCn3cc(C#N)cn3)C2)no1 (stereo not given) , readout=INHIBITION) returns -27.5

get_value(item= O=C1COC2(COCCN(Cc3cccnc3)C2)CN1c1ccccc1 (stereo not given) , readout=INHIBITION) returns -43.73

----------
Tested on: Plasmodium berghei
procedure.details: Screen against P. berghei liver stage (PbLuc), transformed with Luciferase, at 2uM
Type: functional, HepG2
settings: tested at 2 uM
Hit rate of the full screen: of about 68,000 compounds, about 2,700 (4%) showed an effect of 50% or more. This excerpt belongs to a sample that is enriched for strong results.
Please assign not fulfilled whenever INHIBITION is at or above 20%, and fulfilled whenever it is below.

Consider the following illustrative entries.
{"compound": "CCc1ccc(CN(C)Cc2nc(-c3cnccn3)no2)nc1", "class.name": "fulfilled"}
{"compound": "O=C1Nc2ccccc2CNC12CCN(CC1CCNC1)CC2 (centres undefined)", "class.name": "not fulfilled"}
{"compound": "c1ccc(-c2cc(CNCCCC3CCOC3)c3nnnn3c2)cc1 (centres undefined)", "class.name": "not fulfilled"}

input: Check if INHIBITION falls below 20% for Cc1nc(C(=O)N(C)C2CC(=O)N(Cc3ccccc3)C2=O)cs1 (centres undefined) .
output: not fulfilled

input: Check if INHIBITION falls below 20% for `O=C(c1cc(F)ccc1O)N1CCN(C(=O)C2CCC2)CC1` .
output: fulfilled

input: Check if INHIBITION falls below 20% for `CCc1ccc(CN(C)Cc2nc(COc3ccccc3)no2)nc1` .
output: not fulfilled

----------
Tested on: Plasmodium berghei
procedure.details: Screen against P. berghei liver stage (PbLuc), transformed with Luciferase, at 2uM
Type: functional, HepG2
settings: tested at 2 uM
The campaign covered roughly 68,000 compounds. About 2,700 (4%) showed an effect of 50% or more. This excerpt belongs to a sample that is enriched for strong results.
Please assign condition not met whenever INHIBITION is at or above 20%, and condition met whenever it is below.

{"compound": "Cc1occc1C(=O)N1CCC(C(O)c2ccc(F)cc2)CC1 (stereo unspecified)", "class.name": "condition not met"}

input: Check if INHIBITION falls below 20% for `CCn1cnnc1C1CCN(C(=O)c2ccccc2OC)CC1` .
output: condition met

input: Check if INHIBITION falls below 20% for `CCS(=O)(=O)N1CCN(c2cc(-n3cnc(C)c3C)nc(C)n2)CC1` .
output: condition not met

input: Check if INHIBITION falls below 20% for `CCn1cnnc1C1CCN(C(=O)c2cccc(C)c2C)CC1` .
output: condition met

input: Check if INHIBITION falls below 20% for Cc1occc1C(=O)N1CCC(C(O)c2ccc(Cl)cc2)CC1 (stereo unspecified) .
output: condition not met

input: Check if INHIBITION falls below 20% for CCCc1nc(N2CCCC(C)C2)c2c(n1)c(C)nn2CC (stereo unspecified) .
output: condition met

----------
System: Plasmodium berghei
procedure.details: Screen against P. berghei liver stage (PbLuc), transformed with Luciferase, at 2uM
Format: functional, HepG2
settings: tested at 2 uM
Hit rate of the full screen: of about 68,000 compounds, about 2,700 (4%) showed an effect of 50% or more. This excerpt belongs to a sample that is enriched for strong results.
Classes based on INHIBITION: bin 1 (below 10%), bin 2 (10% to below 30%), bin 3 (30% or more)

Consider the following illustrative entries.
{"molecule": "Cc1cnn(CC2CN(Cc3nc(C)no3)CCO2)c1 (centres undefined)", "class.name": "bin 1"}
{"molecule": "Cc1ccc(CCN2CCCC23Cc2ccccc2CNC3=O)cc1 (centres undefined)", "class.name": "bin 3"}

input: The entry to classify is `Cc1cccc(CN2CCC(n3cc(CCO)nn3)CC2)c1C` ; which class holds it?
output: bin 3

input: The entry to classify is CCn1cc(S(=O)(=O)NCC(OC)c2ccccc2)cn1 (centres undefined) ; which class holds it?
output: bin 3

input: The entry to classify is CN(Cc1ccncc1)C1COC2(CCN(Cc3nccn3C)CC2)C1 (centres undefined) ; which class holds it?
output: bin 3

----------
System: Plasmodium berghei
procedure.details: Screen against P. berghei liver stage (PbLuc), transformed with Luciferase, at 2uM
Assay type: functional, HepG2
settings: tested at 2 uM
The whole screen tested about 68,000 compounds, of which about 2,700 (4%) showed an effect of 50% or more. What follows is part of a selection rich in strong results, with near analogues and random picks from the rest.
observable: INHIBITION
Please make sure the unit comes right after the number.

{"molecule": "CCCc1n[nH]c(C2CN(C(=O)c3cc(F)ccc3OC)CCO2)n1 (stereo unspecified)", "meas.value": "-29.94%"}

Value sought: INHIBITION, system Plasmodium berghei, item `CCc1nc(CCNC(=O)NC2CCSCC2)cs1` . Result: 50.32%

Value sought: INHIBITION, system Plasmodium berghei, item `CN1Cc2c(C(=O)NC3CCCCC3)ncn2-c2ccccc2S1(=O)=O` . Result: -2.38%

Value sought: INHIBITION, system Plasmodium berghei, item `CC(C)(C)CC(=O)N1C[C@@H]2C[C@@H]1CN2` . Result: 74.88%

Value sought: INHIBITION, system Plasmodium berghei, item `CCc1nc(CCNC(=O)Nc2ccc(C(=O)NC)cc2)cs1` . Result: -58.5%

Value sought: INHIBITION, system Plasmodium berghei, item `COc1ccc(Cl)cc1C(=O)NCC1CCN(C(=O)c2ccoc2)CC1` . Result: 17.33%

Value sought: INHIBITION, system Plasmodium berghei, item `Cc1ncccc1-c1cc2cccnc2n1CCCNC(=O)C(C)(C)C` . Result: 24.98%

Value sought: INHIBITION, system Plasmodium berghei, item `O=C(NCC1CCCCC1)N1C[C@@H]2C[C@@H]1CN2` . Result: -3.1%

Value sought: INHIBITION, system Plasmodium berghei, item CCc1nc(CCNC(=O)NC2CC(=O)N(C(C)(C)C)C2)cs1 (stereo unspecified) . Result: 3.62%

Value sought: INHIBITION, system Plasmodium berghei, item `Nc1cc2c(nn1)CCN(C(=O)c1csc(-c3ccco3)n1)C2` . Result: 64.9%

Value sought: INHIBITION, system Plasmodium berghei, item `Nc1cc2c(nn1)CCN(C(=O)c1csc(-c3ccccc3)n1)C2` . Result: 29.13%

----------
Test system: Plasmodium berghei
procedure.details: Screen against P. berghei liver stage (PbLuc), transformed with Luciferase, at 2uM
Type: functional, HepG2
settings: tested at 2 uM
The whole screen tested about 68,000 compounds, of which about 2,700 (4%) showed an effect of 50% or more. Many of the other results were omitted from the sample, so strong results are more common in it than they were.
# INHIBITION values compiled below
Reply with just the number (in %).

Recorded INHIBITION, per entry:
{"molecule": "COc1ccc(CNC(=O)NC(C)(CO)C2CC2)c(C(F)(F)F)c1 (stereo unspecified)", "INHIBITION [%]": -16.93}
{"molecule": "Cc1cc(C)c2[nH]c(C(=O)NCCN3CCNC3=O)c(C)c2c1", "INHIBITION [%]": 8.76}
{"molecule": "CC(Cn1cccn1)n1cnc2ccc(F)cc2c1=O (stereo unspecified)", "INHIBITION [%]": 32.71}

Value sought: INHIBITION, system Plasmodium berghei, item `Cc1cnn(CCC(=O)N2CCCN(c3ncccc3C#N)CC2)c1` . Result: -2.7

Value sought: INHIBITION, system Plasmodium berghei, item Cc1ccc2nc(C3CCCN3Cc3nnc(C)s3)[nH]c2c1 (stereo unspecified) . Result: 78.16

Value sought: INHIBITION, system Plasmodium berghei, item `CN(Cc1cnn(C)c1)C(=O)NCc1cc(Br)cs1` . Result: 31.78
